Target: T1, Drosophila Numb PTB domain (aa 65–203) (Drosophila, UniProt P16554-1 65-203)
T1 chain: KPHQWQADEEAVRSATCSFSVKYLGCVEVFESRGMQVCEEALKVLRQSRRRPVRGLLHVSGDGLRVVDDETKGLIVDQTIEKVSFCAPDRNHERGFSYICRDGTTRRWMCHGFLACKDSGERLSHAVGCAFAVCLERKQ
Experiment: ITC
pKd: −log10 of the molar value.
measuredParameter: pKd

Completed entries (count: 2):
>  <binder>
QQKLPTNPFAVLRQPPKKKKREHACFENPGLNLE [Pon single-AB fragment with E121A in the B1 motif]

>  <pKd>
< 4.00

$$$$
>  <binder>
KKKKREHACFENPGLNLELPEKQFNPYEVVASA [Pon single-AB fragment with R158A in the B2 motif]

>  <pKd>
< 4.00

$$$$

[ask] Need pKd of KKKKREHACFENPGLNLELPEKQFNPEEVVRSA [Pon single-AB fragment with Y154E in the B2 motif] , thanks.
[reply] < 4.00
